Reference source for all entries: patent US20150037328A1

Biological target: T1, human CXCR4 (chemokine (C-X-C motif) receptor 4) (human, UniProt P61073 1-352)
T1 construct: Endogenous on human tumour cell lines (Ramos, HPB-ALL, Raji, Jurkat, MM1.S, RPMI-8226, MOLP-8, MOLT-4) or transfected into CHO-K1 cells (DiscoveRx); also called CXCR4 receptor
T1 sequence (P61073 whole entry): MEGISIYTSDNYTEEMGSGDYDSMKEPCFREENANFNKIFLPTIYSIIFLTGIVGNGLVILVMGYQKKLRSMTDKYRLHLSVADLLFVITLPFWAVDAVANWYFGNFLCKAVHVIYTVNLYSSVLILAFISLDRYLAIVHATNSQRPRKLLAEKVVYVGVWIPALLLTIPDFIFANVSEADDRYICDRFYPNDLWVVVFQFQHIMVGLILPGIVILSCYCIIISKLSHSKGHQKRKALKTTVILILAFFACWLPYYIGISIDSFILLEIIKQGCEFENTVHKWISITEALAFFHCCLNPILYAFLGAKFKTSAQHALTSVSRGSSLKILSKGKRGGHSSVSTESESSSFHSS
Experiment: flow cytometry on HPB-ALL cells, Fab at 0.25 µg/mL
Experimental: Binding of CXCR4 Fabs to CXCR4-expressing cells were measured by flow cytometry on HPB-ALL (Human T cell leukemia) cells. 150,000 HPB-ALL cells were resuspended in 100 uL FACS buffer (1×PBS+0.5% BSA) on 96 well plates. […] Fluorescence signals were acquired by cell analyzer LSRII (BD Biosciences, San Jose Calif.).
MEASUREMENT KIND: MFI

Given h3G10.1.91 VH / h3G10.2.72 VL Fab (Fab, V domains shown, Tested as Fab) VH: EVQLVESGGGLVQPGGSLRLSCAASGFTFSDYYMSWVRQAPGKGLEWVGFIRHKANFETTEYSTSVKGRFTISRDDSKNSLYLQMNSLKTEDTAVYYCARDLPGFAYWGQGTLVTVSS VL: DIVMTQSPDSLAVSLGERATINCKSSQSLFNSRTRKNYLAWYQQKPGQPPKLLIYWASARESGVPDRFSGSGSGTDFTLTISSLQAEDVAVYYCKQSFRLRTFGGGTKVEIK , state its recorded MFI.
2350
